The origin of these recorded values is the supplement of paper PMC10567573.

B1: ZNF449 (parent)
chain: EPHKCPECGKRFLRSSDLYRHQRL

variants of: B1; assay: protein stability index of a GFP-peptide fusion (GPS, HEK-293T) (PSI 1-6); higher = more stable; details: c terminus: a fixed tail appended;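 also: lentivirally expressed fusions sorted by FACS into six bins by GFP to DsRed ratio, PSI derived from sequencing read proportions per bin multiplied by bin number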
Would you mind telling me the reported protein stability index of each entry?
Give bare numbers.

Would you be so kind as to report protein stability index for each listed record?
1. EPHKCPECFKRFLRSSDLYRHQRL [G9F]
2. EPHKCPDCGKRFLRSSDLYRHQRL [E7D]
3. EPHKCPECGKRGLRSSDLYRHQRL [F12G]
4. EPHKCPECGKRFLRSGDLYRHQRL [S16G]
5. GPHKCPECGKRFLRSSDLYRHQRL [E1G]
6. EPHKCPECGDRFLRSSDLYRHQRL [K10D]
7. EPHCCPECGKRFLRSSDLYRHQRL [K4C]

1. 2.52
2. 4.12
3. 2.12
4. 3.54
5. 3.13
6. 2.44
7. 3.86
